- Tested on: BT-549 breast
- Assay info: NCI-60 one-dose screen, 48 h
- Reported conditions: 10 µM unless noted
- Description: Growth inhibition of the BT-549 human tumor cell line is measured as a screen for anti-cancer activity. Cells are grown in 96 well plates and exposed to the test compound for 48 hours. Compounds are tested at a single concentration, which is 10^-5 M for most compounds. The reported endpoint is percent growth (GI% or GIPRCNT), where numbers from 0 - 100% represent growth inhibition, and numbers from -100% - 0 represent cell death. For example, a value of 40 represents 60% growth inhibition. […]
Compounds without any hit were thinned out: in the full panel of roughly 83,000, 20% have a hit. Calls of active or inactive are those of the source. The calls were made as follows: active = growth percent below 10; inactive = the rest.
Your reply should match one of these outcome classes. T (active), F (inactive)

What is the recorded call for this compound in the test? "COc1ncc(-c2ccc3ncnc(Nc4cccc(Cl)c4)c3c2)cc1NS(=O)(=O)CCN1CCOCC1"
T

What is the recorded call for this compound in the test? "Cc1nc2sccn2c1-c1csc(Nc2ccccc2Cl)n1"
F

What is the recorded call for this compound in the test? "COC(=O)c1cc(-c2cccs2)c(C#N)c(N)c1C#N"
F

What is the recorded call for this compound in the test? "CN(C)c1ccc(-c2ccc(-c3ccc(C(=N)N)cn3)o2)cc1"
T

What is the recorded call for this compound in the test? "CCCCCCCC/C=C\CCCCCCCCOc1ccccc1CCOP(=O)(O)OCC[N+](C)(C)C"
F

* * *

- System: OVCAR-8 ovarian
- Assay info: NCI-60 one-dose screen, 48 h (100 = growth as untreated, 0 = no growth, -100 = all killed)
- Reported conditions: 10 µM unless noted
About 83,000 compounds went through this panel and 20% of them were active in at least one assay; those are over-represented in the sample as a whole.
Value kind: growth (%)
Use % as the unit, but write only the number.

Retrieve growth measured for CC(Br)C(Br)c1cc2c(cc1Br)OCO2 (stereo not given) and print it.
100

Retrieve growth measured for "CN(C)C/C=C/C(=O)Nc1cc2c(Nc3cccc(Cl)c3F)ncnc2cc1OCCOC(F)F" and print it.
34.7

Retrieve growth measured for O=C(COc1ccccc1)N1N=C(c2ccc(Cl)cc2)CC1c1c[nH]c2ccccc12 (stereo not given) and print it.
70.4

Retrieve growth measured for "Nc1c(C(=O)Nc2cccc(C(F)(F)F)c2)sc2nc3c(cc12)CCCCC3" and print it.
21.3

Retrieve growth measured for "CC(=O)/C=C/c1cc2cc(Cl)ccc2[nH]c1=O" and print it.
92.2

Retrieve growth measured for "COc1ccc(NC(=O)/N=c2\oc3c(OC)cccc3cc2-c2cc3ccccc3[nH]2)cc1" and print it.
49.1

Retrieve growth measured for "CCNc1nc(N2CC(=O)Nc3cc(OC)ccc32)c2ccccc2n1" and print it.
18.1

Retrieve growth measured for O=C(c1c[nH]c2ccccc12)C(Sc1nc2ccccc2c(=O)[nH]1)c1ccccc1 (stereo not given) and print it.
93.3

Retrieve growth measured for "O=c1oc2cc(OS(=O)(=O)c3ccccc3)c(Cl)cc2c2c1CCCCCC2" and print it.
89.2

Retrieve growth measured for CCC(c1cccc(Br)c1)C(C(=O)O)c1ccc(OC)cc1 (stereo not given) and print it.
107

Retrieve growth measured for "CCN(CC)CCSc1c2ccc(Cl)cc2nc2ccc(OC)cc12" and print it.
88.5

Retrieve growth measured for "C=C1C(=O)O[C@H]2[C@H]1CC/C(Cn1cc(-c3ccsc3)nn1)=C\CC[C@@]1(C)O[C@@H]21" and print it.
-4.45

Retrieve growth measured for "CCN(Cc1ccc(CN(CC)C(=O)C(Br)Br)cc1)C(=O)C(Br)Br" and print it.
20.4

Retrieve growth measured for "CN(C)C/C=C/C(=O)Nc1cc2c(Nc3ccc(F)c(Cl)c3F)ncnc2cc1OCCOC(F)F" and print it.
26.6

Retrieve growth measured for Cc1ccc2c(c1)C(C)Cc1c(ncnc1-n1cnc3ccccc31)N2C (stereo not given) and print it.
21.3

Retrieve growth measured for "Nc1nc(Cl)c2c(ncn2Cc2ccc(CCl)cc2)n1" and print it.
49.4

Retrieve growth measured for "CCSc1nnc(Nc2ccc(C(C)C)cc2)s1" and print it.
109

Retrieve growth measured for "O=C1N=C(c2c(-c3[nH]c(=O)c4ccc(Br)cc4c3O)c(O)c3ccccc3c2O)C(=O)c2cc(Br)ccc21" and print it.
-23.5

Retrieve growth measured for "COc1ccc(/C=C/C(=O)/C=C/c2cc3ccc(Cl)cc3[nH]c2=O)cc1" and print it.
81.4

Retrieve growth measured for "COc1ncc(-c2ccc3ncnc(Nc4cccc(Cl)c4)c3c2)cc1NS(=O)(=O)CCN1CCOCC1" and print it.
16.9

Retrieve growth measured for "CCn1cc(C(=O)O)c(=O)c2cc(F)c(N3CCN(S(=O)(=O)c4cccc5ccccc45)CC3)cc21" and print it.
8.43

Retrieve growth measured for CCC1CCc2nc3sc(C(=O)Nc4ccccc4F)c(N)c3cc2C1 (stereo not given) and print it.
83.3

Retrieve growth measured for "CC(C)CCN(CCCNc1c2c(nc3ccccc13)CCCC2)CCC(C)C" and print it.
91.1

Retrieve growth measured for "CCN(CC)CCCNc1nc(C)cc(Nc2ccc3nc(C)cc(N)c3c2)n1" and print it.
106

Retrieve growth measured for N#CC1=C(N)n2nc(-c3ccncc3)nc2NC1c1cccc2ccccc12 (stereo not given) and print it.
92.7

Retrieve growth measured for "CCc1c(C(=O)Nc2ccc3ccccc3c2)[nH]c(C)c1C(C)=O" and print it.
104

Retrieve growth measured for "C=CC(=O)N[C@H](/C=C/C(=O)OCC)Cc1ccc(-c2cc(Cl)cc(Cl)c2)cc1" and print it.
76.6

Retrieve growth measured for "COc1cc(OC)c(C(=O)/C=C/c2ccc(C(F)(F)F)cc2)c(OC)c1" and print it.
40.3

Retrieve growth measured for CCCCNC(=O)NS(=O)(=O)c1ccc(N2N=C(c3ccc(C)cc3C)CC2c2ccc(OC)cc2)cc1 (stereo not given) and print it.
62.9

Retrieve growth measured for "NC(=O)c1c(NC(=O)c2ccc3c(c2)OCO3)sc2c1CCC(=O)C2" and print it.
-15.9

Retrieve growth measured for "Nc1c(C(=O)Nc2cccc(Cl)c2Cl)sc2nc3c(cc12)C(=O)CCC3" and print it.
114

Retrieve growth measured for "Cc1ccc2c(c1)C(=O)C(c1c(-c3[nH]c(=O)c4ccc(C)cc4c3O)c(O)c3ccccc3c1O)=NC2=O" and print it.
14.4

Retrieve growth measured for "C[C@]12CC[C@@H]3c4cc(O)c(O)cc4CC[C@H]3[C@@H]1CC[C@@H]2O" and print it.
51.6

Retrieve growth measured for "CCOC(=O)c1cc(/C(=N\O)c2cc(OC)c(OC)c(OC)c2)n2cc(C)cc(C)c12" and print it.
41.8

Retrieve growth measured for CC(Cc1nnc(SCC(=O)Nc2ccc(I)cc2)n1N)c1ccccc1 (stereo not given) and print it.
95.9

Retrieve growth measured for "COc1ccc(-c2cn[nH]c2-c2cc(OC)c3c(c2)OCCO3)cc1" and print it.
26.1

Retrieve growth measured for O=C(O)C(Cc1ccccc1)N1C(=O)/C(=C/C(Cl)=C/c2ccc([N+](=O)[O-])cc2)SC1=S (stereo not given) and print it.
12.1

Retrieve growth measured for "COc1ccc(-c2nc(-c3nc4ccc(F)cc4[nH]3)cc3c2[nH]c2ccccc23)cc1" and print it.
13.6

Retrieve growth measured for "c1ccc2c(c1)Oc1ccccc1C2C1c2ccccc2Oc2ccccc21" and print it.
101

Retrieve growth measured for "CCCCC[C@@H]1Cc2cc(O)c(C(=O)O)c3c2[C@H](C[C@@]2(CCCO2)O3)O1" and print it.
101
